Ref: the Immune Epitope Database (IEDB)

tested_target: HLA-A*02:01
experimental_protocol: IEDB peptide-MHC binding, purified MHC/competitive/fluorescence; filed as Kd, often an IC50 or EC50 that approximates it; bounds were set here for any values at or beyond the usual limits of such assays
condition_set: source organism: Cryptosporidium parvum Iowa II
reported_metric: Kd

Reported Kd ( `VYWENEVSI` ) = ≥ 20 µM

* * *

tested_target: HLA-B*57:01
experimental_protocol: IEDB peptide-MHC binding, purified MHC/direct/fluorescence; filed as Kd, often an IC50 or EC50 that approximates it; bounds were set here for any values at or beyond the usual limits of such assays
condition_set: source organism: Escherichia coli O157:H7
reported_metric: pKd
Give bare numbers, as −log10 of the molar value.

Lab note: sequence `ITIPIGLYL` tested on HLA-B*57:01; recorded pKd was 6.46

* * *

tested_target: HLA-A*03:01
experimental_protocol: IEDB peptide-MHC binding, purified MHC/competitive/fluorescence; bounds were set here for any values at or beyond the usual limits of such assays
condition_set: source organism: Zaire ebolavirus
reported_metric: IC50

Example entries begin here.
>>> readout_value("ATTAAGPPK")
"6.3 µM"
>>> readout_value("AIGLAWIPY")
"1.54 µM"
>>> readout_value("VQQGIVRQR")
"≥ 160 µM"
>>> readout_value("ASLPKTSGH")
"20.1 µM"

Reported IC50 ( `EMYRHILRS` ) = ≥ 96.9 µM

* * *

tested_target: HLA-B*51:01
experimental_protocol: IEDB peptide-MHC binding, purified MHC/competitive/radioactivity; filed as Kd, often an IC50 or EC50 that approximates it; bounds were set here for any values at or beyond the usual limits of such assays
condition_set: source organism: Lymphocytic choriomeningitis virus (strain Armstrong)
reported_metric: pKd
Answers are plain numbers, as −log10 of the molar value.

Reported pKd ( `MPSLTMACM` ) = 6.06

* * *

Provide the recorded pKd for the entries that follow.
tested_target: HLA-A*23:01
experimental_protocol: IEDB peptide-MHC binding, purified MHC/competitive/radioactivity; filed as Kd, often an IC50 or EC50 that approximates it; bounds were set here for any values at or beyond the usual limits of such assays
condition_set: source organism: Mammarenavirus guanaritoense
Answers are plain numbers, as −log10 of the molar value.

>>> readout_value("FFLPIFSEF")
9.70

I need pKd for every entry listed below, if you could help.
1. EFFDCFKYIL
2. RFFLPIFSEF

1: 5.77; 2: 9.63

* * *

tested_target: HLA-A*24:03
experimental_protocol: IEDB peptide-MHC binding, purified MHC/direct/fluorescence; filed as Kd, often an IC50 or EC50 that approximates it; bounds were set here for any values at or beyond the usual limits of such assays
condition_set: source organism: Pseudomonas aeruginosa UCBPP-PA14
pKd: −log10 of the molar value.
reported_metric: pKd

Reported pKd ( `ASDDLEHWQ` ) = ≤ 4.70

* * *

tested_target: HLA-A*24:02
experimental_protocol: IEDB peptide-MHC binding, purified MHC/competitive/radioactivity; filed as Kd, often an IC50 or EC50 that approximates it; bounds were set here for any values at or beyond the usual limits of such assays
condition_set: source organism: Lymphocytic choriomeningitis virus (strain Armstrong)
reported_metric: pKd
Numbers only, as −log10 of the molar value.

Lab note: sequence `WCSQTSYQYL` tested on HLA-A*24:02; recorded pKd was 4.80

* * *

tested_target: HLA-A*02:12
experimental_protocol: IEDB peptide-MHC binding, purified MHC/direct/fluorescence; filed as Kd, often an IC50 or EC50 that approximates it; bounds were set here for any values at or beyond the usual limits of such assays
condition_set: source organism: Yersinia enterocolitica subsp. enterocolitica 8081
reported_metric: Kd

Lab note: sequence `YIYDGKVNY` tested on HLA-A*02:12; recorded Kd was ≥ 20 µM

* * *

tested_target: HLA-B*35:01
experimental_protocol: IEDB peptide-MHC binding, purified MHC/competitive/fluorescence; filed as Kd, often an IC50 or EC50 that approximates it; bounds were set here for any values at or beyond the usual limits of such assays
condition_set: source organism: Mammarenavirus juninense
pKd: −log10 of the molar value.
reported_metric: pKd

Reported pKd ( `LPTTITVPV` ) = ≥ 10.00

* * *

tested_target: HLA-C*12:03
experimental_protocol: IEDB peptide-MHC binding, purified MHC/direct/fluorescence; filed as Kd, often an IC50 or EC50 that approximates it; bounds were set here for any values at or beyond the usual limits of such assays
condition_set: source organism: Francisella tularensis subsp. tularensis FSC198
pKd: −log10 of the molar value.
reported_metric: pKd

Reported pKd ( `MIYNSFNPY` ) = ≤ 4.70

* * *

tested_target: HLA-A*32:07
experimental_protocol: IEDB peptide-MHC binding, purified MHC/competitive/fluorescence; filed as Kd, often an IC50 or EC50 that approximates it; bounds were set here for any values at or beyond the usual limits of such assays
condition_set: source organism: Clostridium novyi NT
reported_metric: Kd (nM)
One number for each entry, in nM.

Reported Kd ( `ASMDNTSPM` ) = 26.9

* * *

tested_target: HLA-B*18:01
experimental_protocol: IEDB peptide-MHC binding, purified MHC/competitive/fluorescence; filed as Kd, often an IC50 or EC50 that approximates it; bounds were set here for any values at or beyond the usual limits of such assays
condition_set: source organism: Influenza A virus (A/Memphis/1/1978(H1N1))
reported_metric: Kd

Reported Kd ( `AVDADDSHF` ) = ≥ 20 µM

* * *

tested_target: HLA-A*02:02
experimental_protocol: IEDB peptide-MHC binding, purified MHC/competitive/radioactivity; filed as Kd, often an IC50 or EC50 that approximates it; bounds were set here for any values at or beyond the usual limits of such assays
condition_set: source organism: Vaccinia virus WR
Field: label. Allowed values: Fulfilled (Kd < 2000 nM) or Not fulfilled (Kd >= 2000 nM).

>>> cat("LMLHNPTSET")
"Not fulfilled"
>>> cat("TLIQYRQQL")
"Fulfilled"

--- query ---
Does the reported Kd of `QLVFNSISA` stay below 2000 nM? Not fulfilled

* * *

tested_target: HLA-C*06:02
experimental_protocol: IEDB peptide-MHC binding, purified MHC/competitive/fluorescence; filed as Kd, often an IC50 or EC50 that approximates it; bounds were set here for any values at or beyond the usual limits of such assays
condition_set: source organism: Clostridium novyi NT
reported_metric: Kd (nM)
Give bare numbers, in nM.

Reported Kd ( `ASMDNTSPM` ) = 570

* * *

tested_target: HLA-A*02:19
experimental_protocol: IEDB peptide-MHC binding, purified MHC/competitive/fluorescence; filed as Kd, often an IC50 or EC50 that approximates it; bounds were set here for any values at or beyond the usual limits of such assays
condition_set: source organism: Cryptosporidium parvum Iowa II
pKd: −log10 of the molar value.
reported_metric: pKd

Reported pKd ( `VYWENEVSI` ) = ≤ 4.70

* * *

tested_target: HLA-A*02:01
experimental_protocol: IEDB peptide-MHC binding, purified MHC/competitive/fluorescence; bounds were set here for any values at or beyond the usual limits of such assays
condition_set: source organism: Sudan ebolavirus
reported_metric: pIC50
Answers are plain numbers, as −log10 of the molar value.

Example entries begin here.
>>> readout_value("IDFLLRRWG")
4.58
>>> readout_value("NAAGIAWIP")
4.19
>>> readout_value("CLPPPPDGV")
5.83
>>> readout_value("HIPEGETTL")
4.25

I need pIC50 for every entry listed below, if you could help.
1. GLMHNQNAL
2. LQSPPIREA

1: 5.41; 2: 4.84

Reported pIC50 ( `LLQLPRDKF` ) = 4.88

* * *

tested_target: HLA-B*15:42
experimental_protocol: IEDB peptide-MHC binding, purified MHC/competitive/fluorescence; filed as Kd, often an IC50 or EC50 that approximates it; bounds were set here for any values at or beyond the usual limits of such assays
condition_set: source organism: human gammaherpesvirus 4
Provide the recorded Kd for the entries that follow.

I need Kd for every entry listed below, if you could help.
1. MMAKSNSPF
2. YAMAIRQAI

["≥ 5 µM", "≥ 5 µM"]

* * *

tested_target: HLA-B*27:03
experimental_protocol: IEDB peptide-MHC binding, purified MHC/competitive/fluorescence; filed as Kd, often an IC50 or EC50 that approximates it; bounds were set here for any values at or beyond the usual limits of such assays
condition_set: source organism: Toxoplasma gondii
pKd: −log10 of the molar value.
reported_metric: pKd

Reported pKd ( `RTWFYRTEF` ) = ≤ 4.70

* * *

tested_target: HLA-B*45:06
experimental_protocol: IEDB peptide-MHC binding, purified MHC/competitive/fluorescence; filed as Kd, often an IC50 or EC50 that approximates it; bounds were set here for any values at or beyond the usual limits of such assays
condition_set: source organism: Zaire ebolavirus
pKd: −log10 of the molar value.
reported_metric: pKd

Reported pKd ( `TTIGEWAFW` ) = ≤ 5.30

* * *

tested_target: HLA-A*02:06
experimental_protocol: IEDB peptide-MHC binding, purified MHC/competitive/radioactivity; filed as Kd, often an IC50 or EC50 that approximates it; bounds were set here for any values at or beyond the usual limits of such assays
condition_set: source organism: Vaccinia virus Copenhagen
reported_metric: Kd (nM)
Answers are plain numbers, in nM.

Lab note: sequence `LILSCIFAFI` tested on HLA-A*02:06; recorded Kd was 42.5
